B1: GLTSCR2 (parent)
chain: LARRRRRRQARREAEADKPRRLGR

Variants of: B1
Assay: protein stability index of a GFP-peptide fusion (GPS, HEK-293T) (PSI 1-6); higher = more stable;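 note: lentivirally expressed fusions sorted by FACS into six bins by GFP to DsRed ratio, PSI derived from sequencing read proportions per bin multiplied by bin number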
Settings: c terminus: a fixed tail appended

>  <variant designation>
R20P

>  <protein stability index>
5.45

$$$$
>  <variant designation>
R12W

>  <protein stability index>
4.34

$$$$
>  <variant designation>
E13R

>  <protein stability index>
4.4

$$$$
>  <variant designation>
Q9F

>  <protein stability index>
4.27

$$$$
>  <variant designation>
K18I

>  <protein stability index>
4.34

$$$$
>  <variant designation>
K18A

>  <protein stability index>
4.89

$$$$
>  <variant designation>
E15N

>  <protein stability index>
5.4

$$$$
>  <variant designation>
A14E

>  <protein stability index>
5.11

$$$$
>  <variant designation>
K18M

>  <protein stability index>
5.14

$$$$
>  <variant designation>
A2C

>  <protein stability index>
4.49

$$$$
>  <variant designation>
R4D

>  <protein stability index>
4.64

$$$$
>  <variant designation>
K18H

>  <protein stability index>
4.98

$$$$
>  <variant designation>
Q9H

>  <protein stability index>
4.73

$$$$
>  <variant designation>
D17N

>  <protein stability index>
4.32

$$$$
>  <variant designation>
Q9I

>  <protein stability index>
4.75

$$$$
>  <variant designation>
A16N

>  <protein stability index>
4.91

$$$$
>  <variant designation>
E15G

>  <protein stability index>
4.43

$$$$
>  <variant designation>
R7W

>  <protein stability index>
4.63

$$$$
>  <variant designation>
K18S

>  <protein stability index>
4.74

$$$$
>  <variant designation>
R11M

>  <protein stability index>
4.47

$$$$
>  <variant designation>
R6P

>  <protein stability index>
4.57

$$$$
>  <variant designation>
Q9P

>  <protein stability index>
4.85

$$$$
>  <variant designation>
R21C

>  <protein stability index>
4.84

$$$$
>  <variant designation>
G23E

>  <protein stability index>
4.68

$$$$
>  <variant designation>
E15T

>  <protein stability index>
4.22

$$$$
>  <variant designation>
D17R

>  <protein stability index>
4.82

$$$$
>  <variant designation>
A14V

>  <protein stability index>
4.58

$$$$
>  <variant designation>
L1P

>  <protein stability index>
5.18

$$$$
>  <variant designation>
A2H

>  <protein stability index>
4.76

$$$$
>  <variant designation>
R7N

>  <protein stability index>
4.83

$$$$
>  <variant designation>
A10R

>  <protein stability index>
4.95

$$$$
>  <variant designation>
A2I

>  <protein stability index>
4.62

$$$$
>  <variant designation>
A16E

>  <protein stability index>
4.8

$$$$
>  <variant designation>
R12M

>  <protein stability index>
4.87

$$$$
>  <variant designation>
R11Y

>  <protein stability index>
4.95

$$$$
>  <variant designation>
A10L

>  <protein stability index>
4.38

$$$$
>  <variant designation>
R20F

>  <protein stability index>
4.04

$$$$
>  <variant designation>
L1M

>  <protein stability index>
4.75

$$$$
>  <variant designation>
P19K

>  <protein stability index>
4.61

$$$$
>  <variant designation>
K18N

>  <protein stability index>
4.96

$$$$
>  <variant designation>
P19A

>  <protein stability index>
3.92

$$$$
>  <variant designation>
E13L

>  <protein stability index>
4.46

$$$$
>  <variant designation>
E13F

>  <protein stability index>
4.04

$$$$
>  <variant designation>
A2S

>  <protein stability index>
4.83

$$$$
>  <variant designation>
R6I

>  <protein stability index>
3.98

$$$$
>  <variant designation>
L1R

>  <protein stability index>
5.14

$$$$
>  <variant designation>
R20T

>  <protein stability index>
4.82

$$$$
>  <variant designation>
R8K

>  <protein stability index>
4.3

$$$$
>  <variant designation>
A14H

>  <protein stability index>
4.34

$$$$
>  <variant designation>
A2D

>  <protein stability index>
4.41

$$$$
>  <variant designation>
A2W

>  <protein stability index>
3.61

$$$$
>  <variant designation>
R20Q

>  <protein stability index>
4.6

$$$$

Values from the supplement of paper PMC10567573
